Molecular target: CETP (Homo sapiens)
Sequence (P11597 18-493): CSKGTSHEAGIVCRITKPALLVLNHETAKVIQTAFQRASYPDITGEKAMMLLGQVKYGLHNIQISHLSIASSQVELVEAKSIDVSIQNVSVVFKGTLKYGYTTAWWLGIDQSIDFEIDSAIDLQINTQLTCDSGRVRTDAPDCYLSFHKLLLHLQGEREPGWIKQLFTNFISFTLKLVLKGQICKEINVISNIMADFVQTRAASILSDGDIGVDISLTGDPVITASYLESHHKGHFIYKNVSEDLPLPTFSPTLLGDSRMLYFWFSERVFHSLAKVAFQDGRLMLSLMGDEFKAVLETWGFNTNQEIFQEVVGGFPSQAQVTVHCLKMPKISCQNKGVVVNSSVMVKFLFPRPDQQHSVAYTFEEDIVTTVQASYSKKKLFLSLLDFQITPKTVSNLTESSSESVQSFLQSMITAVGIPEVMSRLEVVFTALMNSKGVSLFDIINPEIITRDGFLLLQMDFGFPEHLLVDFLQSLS
Experiment: Assay of CETP Inhibition using Purified Components (Reconstituted Buffer Assay)
Format: biochemical
Set-up: made in house; host or cells: CHO cells (serum-free conditioned medium)
Conditions: Inhibition of CETP activity in reconstituted buffer assay; transfer of [3H]CE from HDL to LDL; read-out: IC50
IC50 for assorted compounds

1) COc1cccc(C(=O)Nc2cccc(N(Cc3cccc(OC(F)(F)C(F)F)c3)CC(O)C(F)(F)F)c2)c1 (centres unmarked)
> 50 µM

Problem: Would you mind telling me what IC50 value was observed for Cc1ccccc1N(Cc1ccc(C(F)(F)F)cc1)CC(O)C(F)(F)F (centres unmarked) ?
Result: > 100 µM

Problem: Would you mind telling me what IC50 value was observed for Cc1cccc(CN(CC(O)C(F)(F)F)c2cccc(Cl)c2)c1 (centres unmarked) ?
Result: > 100 µM

Problem: Would you mind telling me what IC50 value was observed for Cc1ccc(CN(CC(O)C(F)(F)F)c2ccccc2C(F)(F)F)cc1 (centres unmarked) ?
Result: > 100 µM

Problem: Would you mind telling me what IC50 value was observed for OC(CN(CCCc1ccccc1)c1cccc(OC(F)(F)F)c1)C(F)(F)F (centres unmarked) ?
Result: > 100 µM

* * *

IC50 for assorted compounds
Target: CETP (Homo sapiens)
Sequence (P11597 18-493): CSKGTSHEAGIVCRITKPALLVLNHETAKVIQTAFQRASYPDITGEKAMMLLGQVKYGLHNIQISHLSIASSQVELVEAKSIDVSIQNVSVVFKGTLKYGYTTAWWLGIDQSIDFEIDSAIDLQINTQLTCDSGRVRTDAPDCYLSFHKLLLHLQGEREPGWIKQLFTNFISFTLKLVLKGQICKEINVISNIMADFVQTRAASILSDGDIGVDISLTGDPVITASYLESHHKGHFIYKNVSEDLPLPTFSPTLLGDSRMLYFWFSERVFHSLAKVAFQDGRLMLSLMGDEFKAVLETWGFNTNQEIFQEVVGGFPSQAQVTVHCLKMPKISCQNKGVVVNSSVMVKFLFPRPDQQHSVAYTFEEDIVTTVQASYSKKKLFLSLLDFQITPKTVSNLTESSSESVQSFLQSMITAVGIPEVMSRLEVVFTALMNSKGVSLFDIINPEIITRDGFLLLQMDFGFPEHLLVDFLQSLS
Assay: Assay of CETP Inhibition in Human Plasma
Type: biochemical
Parameters: Blood was obtained from healthy volunteers, recruited from the personnel of Monsanto Company; from tissue; host or cells: human EDTA plasma pool from healthy volunteers
Settings: Inhibition of CETP activity in human plasma assay; transfer of [3H]CE from HDL to VLDL and LDL; read-out: IC50

Solved cases (2 shown):
1. OC(CN(Cc1cccc(OC(F)(F)C(F)F)c1)c1cccc(Br)c1)C(F)(F)F (stereo not drawn) [Example 220B]
> 100 µM
2. OC(CN(Cc1cccc(-c2ccccc2C(F)(F)F)c1)c1cccc(Oc2ccccc2)c1)C(F)(F)F (stereo not drawn)
> 100 µM

Now look at this entry.
Problem: Would you mind telling me what IC50 value was observed for OC(CN(Cc1cccc(OC(F)(F)F)c1)c1ccc2c(c1)Cc1cc(Br)ccc1-2)C(F)(F)F (stereo not drawn) ?
Result: > 100 µM
